# TESTED ON: T1, GST-ZBTB4 zinc fingers (Homo sapiens, UniProt Q9P1Z0 268-460)
# T1 sequence: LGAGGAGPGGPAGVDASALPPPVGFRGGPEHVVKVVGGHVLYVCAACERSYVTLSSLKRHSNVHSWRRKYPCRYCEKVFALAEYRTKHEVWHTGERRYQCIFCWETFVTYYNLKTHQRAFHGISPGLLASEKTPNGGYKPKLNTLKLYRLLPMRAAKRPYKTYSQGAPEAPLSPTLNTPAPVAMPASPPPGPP
# ASSAY: EMSA
TEST READOUT: binding result

# annotated cases, reported binding result shown
Name the reported binding result value associated with the binder MS8 methylated (CCGCTAT) (dsDNA, 5mC at CpG, both strands (SssI)) DNA 1: ACCCAAACCGCTATCCTT DNA 2: AAGGATAGCGGTTTGGGT binds

Same read-out for S2 (CTGCCATC) (dsDNA) DNA 1: ACCCACCTGCCATCTAGGT DNA 2: ACCTAGATGGCAGGTGGGT ? binds

What about this binder? S15 (CCGCCATC) (dsDNA) DNA 1: ACCCAACCGCCATCTGGGT DNA 2: ACCCAGATGGCGGTTGGGT binds

Okay, and MS20 methylated (ACGCTTG) (dsDNA, 5mC at CpG, both strands (SssI)) DNA 1: AAGGCCAACGCTTGTGGT DNA 2: ACCACAAGCGTTGGCCTT ? binds

Request: Non-selected (dsDNA) DNA 1: ACCAAGCAACACACCCCGT DNA 2: ACGGGGTGTGTTGCTTGGT no binding

Now for the binder whose binding result we want.
State the recorded binding result for this entry: MS20 unmethylated (ACGCTTG) (dsDNA) DNA 1: AAGGCCAACGCTTGTGGT DNA 2: ACCACAAGCGTTGGCCTT no binding

Sourced from paper PMC2926618
